test system: Pseudomonas aeruginosa PAO1-Xen41; assay: Hill coefficient of concentration-effect curve (unitless); higher = steeper concentration-effect curve; details: medium (conditioned by secondary species or non-conditioned control): H. influenzae
property-name: Hill coefficient
Give bare numbers.

Before answering, review these 7 worked examples.
[
  {
    "molecule": "O=C(O)c1cn(C2CC2)c2cc(N3CCNCC3)c(F)cc2c1=O [ciprofloxacin]",
    "target-or-system": "Pseudomonas aeruginosa PAO1-Xen41",
    "Hill coefficient": 4.89
  },
  {
    "molecule": "C[C@@H](O)[C@H]1C(=O)N2C(C(=O)O)=C(S[C@@H]3CN[C@H](C(=O)N(C)C)C3)[C@H](C)[C@H]12 [meropenem]",
    "target-or-system": "Pseudomonas aeruginosa PAO1-Xen41",
    "Hill coefficient": 2.15
  },
  {
    "molecule": "CN(C)c1ccc(O)c2c1C[C@H]1C[C@H]3[C@H](N(C)C)C(O)=C(C(N)=O)C(=O)[C@@]3(O)C(O)=C1C2=O [minocycline]",
    "target-or-system": "Pseudomonas aeruginosa PAO1-Xen41",
    "Hill coefficient": 1.67
  },
  {
    "molecule": "CO[C@H]1/C=C/O[C@@]2(C)Oc3c(C)c(O)c4c(O)c(c(/C=N/N5CCN(C)CC5)c(O)c4c3C2=O)NC(=O)/C(C)=C\\C=C\\[C@H](C)[C@H](O)[C@@H](C)[C@@H](O)[C@@H](C)[C@H](OC(C)=O)[C@@H]1C [rifampicin]",
    "target-or-system": "Pseudomonas aeruginosa PAO1-Xen41",
    "Hill coefficient": 5.03
  },
  {
    "molecule": "C[C@H]1[C@H](NC(=O)/C(=N\\OC(C)(C)C(=O)O)c2csc(N)n2)C(=O)N1S(=O)(=O)O [aztreonam]",
    "target-or-system": "Pseudomonas aeruginosa PAO1-Xen41",
    "Hill coefficient": 1.98
  },
  {
    "molecule": "NC[C@H]1O[C@H](O[C@H]2[C@H](O)[C@@H](O[C@H]3O[C@H](CO)[C@@H](O)[C@H](N)[C@H]3O)[C@H](N)C[C@@H]2N)[C@H](N)C[C@@H]1O [tobramycin]",
    "target-or-system": "Pseudomonas aeruginosa PAO1-Xen41",
    "Hill coefficient": 14.4
  },
  {
    "molecule": "C[C@@H]1O[C@@H]1P(=O)(O)O [fosfomycin]",
    "target-or-system": "Pseudomonas aeruginosa PAO1-Xen41",
    "Hill coefficient": 1.57
  }
]

// switching to the query molecule
Item: CCC(C)CCCC(=O)N[C@@H](CCN)C(=O)N[C@H](C(=O)N[C@@H](CCN)C(=O)N[C@H]1CCNC(=O)[C@H]([C@@H](C)O)NC(=O)[C@H](CCN)NC(=O)[C@H](CCN)NC(=O)[C@H](CC(C)C)NC(=O)[C@@H](CC(C)C)NC(=O)[C@H](CCN)NC1=O)[C@@H](C)O (stereo partly drawn) [colistin] | Hill coefficient: 7.12
